This collection of values is drawn from paper PMC9352680.

- subject_of_test: T1, PUF4 RNA-binding domain (Saccharomyces cerevisiae, UniProt P25339 537-888)
- T1 sequence: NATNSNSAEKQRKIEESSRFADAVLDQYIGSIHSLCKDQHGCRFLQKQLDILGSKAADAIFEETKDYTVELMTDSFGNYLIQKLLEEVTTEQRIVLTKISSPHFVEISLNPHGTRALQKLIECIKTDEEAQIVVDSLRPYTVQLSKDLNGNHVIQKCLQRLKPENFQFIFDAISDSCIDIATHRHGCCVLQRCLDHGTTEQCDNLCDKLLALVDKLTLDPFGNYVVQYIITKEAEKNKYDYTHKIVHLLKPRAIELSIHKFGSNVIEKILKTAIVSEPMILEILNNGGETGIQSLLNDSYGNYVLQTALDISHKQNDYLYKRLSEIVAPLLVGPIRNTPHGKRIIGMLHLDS
- experiment_description: Mg; RNA-MaP; 20 mM Na-HEPES pH 7.4, 30 mM KOAc, 0.75 mM MgCl2, 0.1% Tween-20, 5% glycerol, 0.1 mg/mL BSA, 2 mM DTT; 25 C; 0.0125-409.6 nM protein
- experimental_conditions: tags: N-His6-TEV cleaved; C-SNAP kept, Cy3B-labelled; label: tethered on chip by stalled RNA polymerase
assay_readout: Kd (µM)
Numbers only, in µM.

Each binder below has a reported value. Please supply its Kd.
1. UCUCUUGGCACACUAUAUAUCUCUU (ssRNA) [Id_i_S1_P3E.7_K3.3_C3.3_[T-3G]_[C-2G]_[T-1C]_H3.3_A3.1_F3.1_T3.2]
2. Ib_S2_P4E.1_K4.1_C4.1_H4.1_[G2A]_A4.1_[A6C]_F4.1_T4.1 (ssRNA) RNA: UUUGAUUAAUAUGAUAUCGUUCUUUCUUAUAUCUUAUUCUUUCUCGAUAUCAUAUUAAUCUUU
3. UCUCUUGCUAUAUAUAACUCUCUU (ssRNA) [Id_ii_S1_P3E.3_K3.2_C3.2_[C-2G]_[T-1C]_H3.2_A3.1_F3.1_T3.2_[T9A]_[A10C]]
4. Ie_S2_P3E.2_K3.1_C3.2_H3.1_[+3CCCT]_A3.1_F3.1_T3.2 (ssRNA) RNA: UUUGAUUAAUAUGAUAUCGUUCUUUCUCUUGUCCCUAUAUAUAUUCUUUCUCGAUAUCAUAUUAAUCUUU
5. UCUCUUUGUAUUCCUCUCUCUU (ssRNA) [Ic_S1_P5E.1_K5.1_C5.1_H5.1_A5.1_[A7C]_F5.1_[T8C]_[A10C]_T5.1]

1: 0.821; 2: 0.154; 3: 1.51; 4: 0.0304; 5: 0.132

Lab note: each binder below needs its Kd filled in.
1. Ic_S4_P3E.1_K3.1_C3.1_H3.1_A3.1_[T5G]_[A6T]_F3.1_[T7G]_[A8T]_T3.1 (ssRNA) RNA: UUUGACAACUGAUCGUUCUUUCUUGUAGUGUUUCUUUCUCGAUCAGUUGUCUUU
2. Id_ii_S4_P5E.2_K5.1_C5.2_[T-1A]_H5.1_A5.1_F5.1_T5.2_[A12T] (ssRNA) RNA: UUUGACAACUGAUCGUUCUUUCUCAUGUAUUAUUAUUUUCUUUCUCGAUCAGUUGUCUUU
3. UCUCUUUGUAUAUUUCUCUU (ssRNA) [Ic_S1_P3E.1_K3.1_C3.1_H3.1_A3.1_F3.1_[A8T]_T3.1]
4. Ic_S2_P5E.1_K5.1_C5.1_H5.1_A5.1_[T6C]_[A7G]_F5.1_[T8C]_[T9C]_[A10T]_T5.1 (ssRNA) RNA: UUUGAUUAAUAUGAUAUCGUUCUUUCUUGUAUCGCCUUUCUUUCUCGAUAUCAUAUUAAUCUUU
5. UCUCUUCAUGUAUAUAAUUCUCUU (ssRNA) [Id_ii_S1_P3E.2_K3.1_C3.2_[T-1A]_H3.1_A3.1_F3.1_T3.2_[T9A]_[A10T]]
6. Ic_S2_P5E.1_K5.1_C5.1_H5.1_A5.1_[T6A]_F5.1_[T8C]_[T9G]_[A10T]_T5.1 (ssRNA) RNA: UUUGAUUAAUAUGAUAUCGUUCUUUCUUGUAUAACGUUUCUUUCUCGAUAUCAUAUUAAUCUUU
7. UCUCUUGCACACUAUAUUUCUCUU (ssRNA) [Id_ii_S1_P3E.4_K3.3_C3.2_[C-2G]_[T-1C]_H3.3_A3.1_F3.1_T3.2_[A10T]]

1: 0.1; 2: 0.00217; 3: 0.00459; 4: 0.463; 5: 0.0116; 6: 0.015; 7: 0.0948

For each listed entry, give its Kd.
1. ACAAACUUUAUAUAUUAACACAAAC (ssRNA) [Id_ii_S3_P4E.3_K4.2_C4.2_[C-2T]_H4.2_A4.1_F4.1_T4.2_[G10A]_[T11C]]
2. UCUCUUUCUUGUAAUAUUAAAUCUCUU (ssRNA) [Id_iii_S1_P5E.8_K5.4_C5.3_H5.1_A5.2_F5.1_T5.2_[T11A]]
3. UCUCUUUGUAGUCUUUCUCUU (ssRNA) [Ic_S1_P4E.1_K4.1_C4.1_H4.1_A4.1_[T5G]_[A6T]_[T7C]_F4.1_[A9T]_T4.1]

1: 0.0295; 2: 0.0113; 3: 0.389

What value of Kd has been recorded for this entry: Ic_S2_P3E.1_K3.1_C3.1_H3.1_A3.1_F3.1_[A8G]_T3.1 (ssRNA) RNA: UUUGAUUAAUAUGAUAUCGUUCUUUCUUGUAUAUGUUCUUUCUCGAUAUCAUAUUAAUCUUU
0.0117
